Record form. Attribute: pIC50. Fill in for each entry.
- assayed target: dopamine D-2 receptors in rat corpus striatum (Rattus norvegicus)
- Sequence (P61169 whole entry): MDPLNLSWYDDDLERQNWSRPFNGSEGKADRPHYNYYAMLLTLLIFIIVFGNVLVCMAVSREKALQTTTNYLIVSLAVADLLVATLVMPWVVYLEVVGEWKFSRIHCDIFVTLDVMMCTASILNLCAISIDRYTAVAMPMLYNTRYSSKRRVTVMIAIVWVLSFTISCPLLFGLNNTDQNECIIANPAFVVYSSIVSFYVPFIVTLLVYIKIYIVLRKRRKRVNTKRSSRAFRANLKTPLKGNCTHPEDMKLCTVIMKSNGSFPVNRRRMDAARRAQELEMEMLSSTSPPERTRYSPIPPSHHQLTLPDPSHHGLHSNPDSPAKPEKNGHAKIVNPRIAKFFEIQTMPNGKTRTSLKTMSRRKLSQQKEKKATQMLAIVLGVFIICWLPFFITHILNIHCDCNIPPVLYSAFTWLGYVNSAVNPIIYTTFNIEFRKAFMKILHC
- protocol notes: Inhibition of ^3H-spiperone (spiroperidol) binding to dopamine D-2 receptors in rat corpus striatum in vitro
- experimental parameters: 0.5 nM ^3H-spiperone, rat striatum membranes, 37° C., 10 min
- Description: By this method the inhibition by drugs of the binding of ^3 H-spiperone (=^3 H-spiroperidol) (0.5 nM) to dopamine D-2 receptors in membranes from rat corpus striatum is determined in vitro. Method and results in Hyttel & Larsen, J. Neurochem, 44, 1615-1622, 1985). Male Wistar (Mol:Wistar) rats (125-250 g) are sacrificed and striatal tissue is dissected and weighed. […] The measured cpm are plotted against drug concentration on semilogarithmic paper and the best fitting S-shaped curve is drawn. […]
# log scale: pIC50 equals minus log10 of the concentration in mol/L

[Q] Indicate the recorded pIC50 value for this molecule: `CN1CCN(CCN2CCC(n3cc(-c4ccc(F)cc4)c4cc(Cl)ccc43)CC2)C1=O`
[A] 6.26

[Q] Indicate the recorded pIC50 value for this molecule: `Cc1ccc2c(c1)c(-c1ccc(F)cc1)cn2C1=CCN(C)CC1`
[A] 7.49

[Q] Indicate the recorded pIC50 value for this molecule: `O=C1NCCN1CCN1CC=C(n2cc(-c3ccc(F)cc3)c3cc(C(F)(F)F)ccc32)CC1`
[A] 6.36

[Q] Indicate the recorded pIC50 value for this molecule: `O=C1NCCN1CCN1CCC(n2cc(-c3ccc(F)cc3)c3ccc(Cl)cc32)CC1`
[A] 7.43

[Q] Indicate the recorded pIC50 value for this molecule: `CN1CCN(CCN2CCC(n3cc(-c4ccc(F)cc4)c4ccc(Cl)cc43)CC2)C1=O`
[A] 7.34

[Q] Indicate the recorded pIC50 value for this molecule: `Cc1ccc2c(c1)c(-c1ccc(F)cc1)c(C)n2C1=CCN(C)CC1`
[A] 6.15

[Q] Indicate the recorded pIC50 value for this molecule: `Cc1ccc2c(c1)c(-c1ccc(F)cc1)c(C)n2C1CCN(CCN2CCNC2=O)CC1`
[A] 5.16

[Q] Indicate the recorded pIC50 value for this molecule: `O=C1NCCN1CCN1CCC(n2c(Br)c(-c3ccc(F)cc3)c3ccccc32)CC1`
[A] 6.19

Data origin, for the record: patent US5393761A
